# SYSTEM TESTED: HIV-1 93IN905 envelope glycoprotein (Env) (HIV-1)
# METHOD NOTES: cell-based or functional assay
For each of the binders below, state its IC50 neutralization.
Express it in µg/mL; write the number only.

Ask: Look up IC50 neutralization for this binder: PGT-130 (antibody, V domains shown) VH: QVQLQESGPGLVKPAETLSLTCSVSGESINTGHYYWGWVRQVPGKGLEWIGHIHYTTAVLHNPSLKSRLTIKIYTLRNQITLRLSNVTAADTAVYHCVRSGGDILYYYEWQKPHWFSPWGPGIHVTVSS VL: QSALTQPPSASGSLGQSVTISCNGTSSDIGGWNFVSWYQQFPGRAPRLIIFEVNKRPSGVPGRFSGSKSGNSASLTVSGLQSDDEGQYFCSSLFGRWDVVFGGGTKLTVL
Result: 0.0182

Ask: Return reported IC50 neutralization; argument: PGT-125 (antibody, V domains shown) VH: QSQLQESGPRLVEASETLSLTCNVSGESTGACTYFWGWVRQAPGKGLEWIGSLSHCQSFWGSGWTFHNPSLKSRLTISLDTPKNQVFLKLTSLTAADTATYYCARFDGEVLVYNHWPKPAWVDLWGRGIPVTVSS VL: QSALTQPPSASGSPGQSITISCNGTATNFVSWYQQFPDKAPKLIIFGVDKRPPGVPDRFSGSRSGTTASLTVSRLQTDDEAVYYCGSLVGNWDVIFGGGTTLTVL
Result: 0.0137

Ask: Fill in: IC50 neutralization of PGT-123 (antibody, V domains shown) VH: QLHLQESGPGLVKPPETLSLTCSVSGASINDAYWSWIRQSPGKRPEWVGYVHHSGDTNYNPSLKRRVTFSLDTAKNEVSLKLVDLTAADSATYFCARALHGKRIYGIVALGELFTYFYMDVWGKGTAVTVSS VL: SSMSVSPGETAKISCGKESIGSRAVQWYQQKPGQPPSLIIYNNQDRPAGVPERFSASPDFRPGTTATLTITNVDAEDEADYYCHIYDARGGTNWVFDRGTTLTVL is ___
Result: 0.0071
